System: MDA-MB-231
Assay: Cytotoxicity against human MDA-MB-231 cells assessed as cell viability measured after 48 hrs by MTT assay
Format: functional, cell-based
Settings: MDA-MB-231, 48 h
Reported Metric: IC50 (nM)
Please reply with the bare figure in nM and do not write the unit itself.

Provide the reported IC50 (system: MDA-MB-231) for O=C1c2cccc(Cl)c2-[n+]2ccc3c([nH]c4ccccc43)c21
300

###

Test system: PC-3
Assay: Cytotoxicity against human PC-3 cells assessed as cell viability measured after 24 hrs incubation followed by incubated 3 hrs with MTS reagent by MTS assay
Assay type: functional, cell-based
Reported Metric: IC50
The reply should consist of the numeric value with the unit placed after it.

Name the recorded IC50 of the item O=C1c2ccc(Br)cc2-[n+]2ccc3c([nH]c4cc(Br)ccc43)c21 in your answer.
7.28 µM

###

Tested on: MDA-MB-231
Assay: Cytotoxicity against human MDA-MB-231 cells assessed as cell growth inhibition incubated for 72 hrs by alamarblue staining based assay
Type: functional
Conditions: MDA-MB-231, 72 h
Reported Metric: IC50
Lab note: write values as number then unit, every time.

Respond only with IC50 recorded for N=C(N)NCCCCNC(=O)[C@@]1(O)[C@H](Cc2c[nH]c3cc(Br)ccc23)[C@@](O)(Cc2c[nH]c3cc(Br)ccc23)C(=O)N1CCCCNC(=N)N [EUSYNSTYELAMIDE B]
5 µM

###

Test system: MDA-MB-231
Test: Cytotoxicity against human MDA-MB-231 cells measured after 24 to 72 hrs by MTT cell proliferation assay
Type: functional, cell-based
Reported Metric: IC50 (µM)
Report only the number, with the unit µM understood.

# return recorded IC50 for entry COc1cc2ccnc3c2c(c1O)N(C)C=C3
30.1

###

Test system: PC-3
Assay: Antiproliferative activity against human PC-3 cells assessed as inhibition of cell proliferation measured after 2 to 4 hrs incubation by MTT assay
Format: functional, cell-based
Reported Metric: IC50 (nM)
Express your answer in nM, writing the number without its unit.

Let me know recorded IC50 for COC1=C(Br)[C@H](O)[C@](O)(CC#N)C=C1Br , thanks.
120

###

Target: Hepatocyte growth factor receptor (Homo sapiens, UniProt P08581)
Sequence (P08581 whole entry): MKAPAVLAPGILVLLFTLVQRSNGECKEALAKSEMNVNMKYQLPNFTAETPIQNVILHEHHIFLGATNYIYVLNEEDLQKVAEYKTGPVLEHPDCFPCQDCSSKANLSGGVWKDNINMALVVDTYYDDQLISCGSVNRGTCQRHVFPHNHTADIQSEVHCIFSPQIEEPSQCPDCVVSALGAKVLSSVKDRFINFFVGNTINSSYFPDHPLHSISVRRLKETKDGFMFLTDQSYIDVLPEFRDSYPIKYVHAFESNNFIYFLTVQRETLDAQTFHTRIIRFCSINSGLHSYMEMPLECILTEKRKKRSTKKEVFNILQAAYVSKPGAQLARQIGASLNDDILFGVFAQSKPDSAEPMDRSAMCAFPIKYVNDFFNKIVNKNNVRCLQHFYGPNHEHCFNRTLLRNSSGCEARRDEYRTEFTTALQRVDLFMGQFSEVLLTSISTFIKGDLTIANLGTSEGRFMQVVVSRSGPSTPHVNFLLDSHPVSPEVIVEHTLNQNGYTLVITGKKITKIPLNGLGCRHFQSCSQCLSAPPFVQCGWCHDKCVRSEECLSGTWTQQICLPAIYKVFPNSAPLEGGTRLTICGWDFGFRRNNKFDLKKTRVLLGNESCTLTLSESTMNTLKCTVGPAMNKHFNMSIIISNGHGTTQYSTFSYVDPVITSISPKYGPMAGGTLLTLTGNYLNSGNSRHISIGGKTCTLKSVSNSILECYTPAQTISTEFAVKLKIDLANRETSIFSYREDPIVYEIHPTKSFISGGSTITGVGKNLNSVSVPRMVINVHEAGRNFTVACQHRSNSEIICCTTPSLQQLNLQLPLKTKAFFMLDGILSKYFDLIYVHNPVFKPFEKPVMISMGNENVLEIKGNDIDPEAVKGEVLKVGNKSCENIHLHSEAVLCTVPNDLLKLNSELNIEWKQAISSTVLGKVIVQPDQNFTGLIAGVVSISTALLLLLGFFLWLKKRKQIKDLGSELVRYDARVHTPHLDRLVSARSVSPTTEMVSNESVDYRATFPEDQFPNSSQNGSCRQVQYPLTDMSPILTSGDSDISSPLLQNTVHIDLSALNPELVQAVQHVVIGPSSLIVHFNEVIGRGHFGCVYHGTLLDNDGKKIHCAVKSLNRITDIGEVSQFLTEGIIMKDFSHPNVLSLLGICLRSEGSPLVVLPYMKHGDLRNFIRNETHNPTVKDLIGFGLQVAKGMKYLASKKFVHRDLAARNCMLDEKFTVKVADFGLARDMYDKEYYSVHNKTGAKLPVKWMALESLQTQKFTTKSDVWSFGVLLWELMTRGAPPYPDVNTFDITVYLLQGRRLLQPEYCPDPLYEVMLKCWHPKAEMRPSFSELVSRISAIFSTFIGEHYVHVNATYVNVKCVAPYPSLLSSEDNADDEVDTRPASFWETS
Experiment: Inhibition of c-Met phosphorylation in human BT-474 cells using Z-LYTE Tyr6 peptide substrate measured after 1 hr incubation by Z-LYTE c-Met Kinase assay
Reported Metric: IC50 (µM)
Express the result in µM but write the number alone.

Supply measured IC50 of [O-][N+]12CCC[C@]3(O)CCCCCC[C@H]4CCN5CCC[C@@H](CCCCCC[C@@H](CC1)O[C@@H]32)[C@@H]5O4 (stereo partly specified) in your reply.
19.9

###

Test: Cytotoxicity against p53-/- transgenic mouse derived T11 cells assessed as cell viability measured after 48 hrs by Cell Titer Glo assay
Assay type: functional, cell-based
Settings: T11, 48 h
Reported Metric: pIC50
Worth noting: pIC50 values are minus log10 of concentrations stated in mol/L.

Supply recorded pIC50 for CC[C@H]1C=CCC[C@@]2(C[C@@H]3CC[C@@H]4[C@H](C(=O)OCCCCCCCCCCCCCCCC(=O)N(CCCN)C[C@@H](O)CCN)[C@]5(CCC[C@@H](C)O5)NC(=N2)N34)O1 here.
7.05

###

System: BT-474
Test: Anticancer activity against human BT-474 cells assessed as cell viability measured after 48 hrs by MTT assay
Type: functional, cell-based
Details: BT-474, 48 h
Reported Metric: pIC50
pIC50 here is simply -log10 of the concentration when that concentration is written in mol/L.

Given [O-][N+]12CCC[C@]3(O)CCCCCC[C@H]4CCN5CCC[C@@H](CCCCCC[C@@H](CC1)O[C@@H]32)[C@@H]5O4 (stereo partly specified) , respond with its pIC50.
4.82
